Each item that follows carries a reported CC50.
# System: SW48 human colorectal cancer cells
# Assay remarks: Calculated free drug potency in SW48 cell assay, corrected with media free fraction (Example C)
# Assay type: cell-based
# Assay context: Homo sapiens, SW48, SW48 pCC50 corrected with measured free fraction in cell assay media
Structures can show the parent of a compound that is named as a salt.
Just so you know, I need the unit written after the number.

As a guide, the following entries are already answered.
molecule="Cc1nc2cc(S(=O)(=O)N(C)c3ccc([C@H]4C[C@@H](N5CCC[C@H](F)C5)C[C@@H](C(=O)Nc5ccc(C(F)(F)F)cc5F)[C@@H]4C(=O)O)cc3)ccc2n1C (stereo in doubt)" target_or_system="SW48 human colorectal cancer cells" observed_property=CC50 result="13.8 nM"
molecule="Cc1nc2cc(S(=O)(=O)N(C)c3ccc([C@H]4C[C@@H](N5CC[C@@H](F)C5)C[C@@H](C(=O)Nc5ccc(C(F)(F)F)cc5F)[C@@H]4C(=O)O)cc3)ccc2n1C (stereo in doubt)" target_or_system="SW48 human colorectal cancer cells" observed_property=CC50 result="8.51 nM"
molecule="Cc1nc2cc(S(=O)(=O)N(C)c3ccc([C@H]4C[C@@H](OC[C@@H]5CCOC5)C[C@@H](C(=O)Nc5ccc(C(F)(F)F)cc5F)[C@@H]4C(=O)O)cc3)ccc2n1C (stereo in doubt)" target_or_system="SW48 human colorectal cancer cells" observed_property=CC50 result="8.91 nM"
molecule=CN(c1ccc([C@H]2CCC[C@@H](C(=O)Nc3ccc(C(F)(F)F)cc3F)[C@@H]2C(=O)O)cc1)S(=O)(=O)c1ccccc1 target_or_system="SW48 human colorectal cancer cells" observed_property=CC50 result="105 nM"
molecule="Cc1nc2cc(S(=O)(=O)N(C)c3ccc([C@H]4C[C@@H](OC(F)F)C[C@@H](C(=O)Nc5ccc(C(F)(F)F)cc5F)[C@@H]4C(=O)O)cc3)ccc2n1C (stereo in doubt)" target_or_system="SW48 human colorectal cancer cells" observed_property=CC50 result="13.5 nM"

Bench note: what CC50 did `Cc1nc2cc(S(=O)(=O)N(C)c3ccc([C@H]4CCC[C@@H](C(=O)Nc5ccc(C(F)(F)F)nc5)[C@@H]4C(=O)O)cc3)ccc2n1C` show?
219 nM

Given the entry Cc1nc2cc(S(=O)(=O)N(C)c3ccc([C@@H]4CCC[C@H](COc5ccc(C(F)(F)F)cc5)[C@H]4C(=O)O)cc3)cc([C@@H]3CCCN(C)C3)c2n1C (single isomer, unassigned) [Example 211, formic acid salt] , report its measured CC50.
66.1 nM

Could you tell me which CC50 is on file for `Cc1nc2cc(S(=O)(=O)N(C)c3ccc([C@H]4CCC[C@@H](C(=O)Nc5ccc(C(C)(C)O)cc5F)[C@@H]4C(=O)O)cc3)ccc2n1C` ?
603 nM

CC50 for `CCO[C@@H]1C[C@H](c2ccc(NS(=O)(=O)c3ccc4c(c3)nc(C)n4C)cc2)[C@@H](C(=O)O)[C@H](C(=O)Nc2ccc(C(F)(F)F)cc2F)C1` ?
21.4 nM

Given CCO[C@@H]1C[C@H](c2ccc(N(C)S(=O)(=O)c3ccc4c(c3)nc(C)n4C)cc2)[C@@H](C(=O)O)[C@H](C(=O)Nc2ccc(C(F)(F)F)cc2F)C1 (single isomer, unassigned) , state its recorded CC50.
17 nM

What CC50 value was documented for this molecule, `CCO[C@@H]1C[C@H](c2ccc(N(C)S(=O)(=O)c3ccc4c(c3)nc(N(C)C)n4C)cc2)[C@@H](C(=O)O)[C@H](C(=O)Nc2ccc(C(F)(F)F)cc2F)C1` ?
5.13 nM

Given `CN(c1ccc([C@H]2CCC[C@@H](C(=O)Nc3ccc(C(F)(F)F)cc3F)[C@@H]2C(=O)O)cc1)S(=O)(=O)c1ccc2ccn(C)c2c1` , state its recorded CC50.
10.7 nM
